// provenance: ChEMBL document CHEMBL2150889

Target: UniProt:P41594
Test: Positive allosteric modulation of human mGluR5 expressed in recombinant HEK293 cells by FLIPR assay
reported-property: EC50 (nM)
One number for each entry, in nM.

For the 2 compounds below, give their EC50 values.
1. Cc1cccc(-c2noc(C3CN(C(=O)C4CCC(F)(F)CC4)C3)n2)c1
2. CC1CCC(C(=O)N2CC(c3nc(-c4cccc(Cl)c4)no3)C2)CC1 (stereo not given)

Result:
[590, 1500]

----------
Target: Metabotropic glutamate receptor 5 (Homo sapiens)
Assay: Negative allosteric modulation of human mGluR5 expressed in recombinant HEK293 cells by FLIPR assay
Sequence (P41594 whole entry): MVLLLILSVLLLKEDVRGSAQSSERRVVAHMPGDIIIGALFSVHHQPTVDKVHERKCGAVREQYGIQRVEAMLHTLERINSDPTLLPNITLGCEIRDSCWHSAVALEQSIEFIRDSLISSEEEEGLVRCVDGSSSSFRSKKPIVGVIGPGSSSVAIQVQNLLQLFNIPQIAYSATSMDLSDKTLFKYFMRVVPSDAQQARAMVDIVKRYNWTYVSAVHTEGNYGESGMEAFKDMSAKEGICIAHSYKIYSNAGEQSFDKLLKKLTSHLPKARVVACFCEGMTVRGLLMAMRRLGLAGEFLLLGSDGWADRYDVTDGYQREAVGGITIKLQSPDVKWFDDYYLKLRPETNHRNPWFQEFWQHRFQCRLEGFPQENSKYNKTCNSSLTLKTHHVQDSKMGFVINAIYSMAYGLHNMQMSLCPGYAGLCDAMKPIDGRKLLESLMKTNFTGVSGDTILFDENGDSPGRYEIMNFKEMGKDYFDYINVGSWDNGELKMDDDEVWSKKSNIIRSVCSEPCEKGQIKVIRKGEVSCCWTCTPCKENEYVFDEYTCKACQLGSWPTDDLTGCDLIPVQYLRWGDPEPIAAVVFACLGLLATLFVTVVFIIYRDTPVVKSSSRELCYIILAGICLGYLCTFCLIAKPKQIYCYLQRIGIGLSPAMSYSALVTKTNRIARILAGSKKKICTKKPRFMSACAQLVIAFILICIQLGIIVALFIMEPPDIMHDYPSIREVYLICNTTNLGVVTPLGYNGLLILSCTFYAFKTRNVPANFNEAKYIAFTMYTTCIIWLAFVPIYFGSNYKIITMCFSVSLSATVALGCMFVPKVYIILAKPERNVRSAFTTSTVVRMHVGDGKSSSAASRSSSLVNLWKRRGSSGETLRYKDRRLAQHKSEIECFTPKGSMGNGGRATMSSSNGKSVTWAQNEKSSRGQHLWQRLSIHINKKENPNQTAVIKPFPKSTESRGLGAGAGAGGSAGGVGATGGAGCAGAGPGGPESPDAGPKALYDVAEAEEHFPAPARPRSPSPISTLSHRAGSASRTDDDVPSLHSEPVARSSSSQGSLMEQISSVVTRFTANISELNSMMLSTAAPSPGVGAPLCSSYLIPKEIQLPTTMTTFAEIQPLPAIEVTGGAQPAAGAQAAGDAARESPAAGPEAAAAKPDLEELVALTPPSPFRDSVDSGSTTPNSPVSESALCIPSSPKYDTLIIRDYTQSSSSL
reported-property: pIC50
Numbers only, as −log10 of the molar value.

>>> value_observed("Cc1cccc(-c2noc([C@@H]3CCN3C(=O)c3ccccc3F)n2)c1")
5.74
>>> value_observed("Cc1cccc(-c2noc(C3CN(C(=O)c4ccccc4F)C3)n2)c1")
5.85
>>> value_observed("Cc1cccc(S(=O)(=O)N2CC(c3nc(-c4cccc(Cl)c4)no3)C2)c1")
6.41
>>> value_observed("CC1CN(C(=O)N2CC(c3nc(-c4cccc(Cl)c4)no3)C2)CC(C)O1 (configuration not stated)")
6.00
>>> value_observed("Cc1cccc(-c2noc(C3CN(C(=O)C4CCCC4)C3)n2)c1")
5.60
>>> value_observed("O=C(c1ccccc1F)N1CC[C@H]1c1nc(-c2cccc(F)c2)no1")
6.04
>>> value_observed("Cc1cccc(-c2noc(C3CN(C(=O)C4CCCO4)C3)n2)c1 (configuration not stated)")
5.72
>>> value_observed("O=C(c1ccccc1F)N1CC(c2nc(-c3cccc(Cl)c3)no2)C1")
6.17

As a next step, examine the compound that follows.
Request: So what does the record say about pIC50 for Cc1cccc(-c2noc([C@@H]3CCN3C(=O)c3ccc(C#N)cc3)n2)c1 ?
Result: 5.85

----------
Biological target: Metabotropic glutamate receptor 5 (Homo sapiens, UniProt P41594)
Experiment: Positive allosteric modulation of human mGluR5 expressed in recombinant HEK293 cells by FLIPR assay
Format: cell-based
reported-property: Emax
Provide a numeric answer, followed by its unit.

>>> value_observed("O=C(C1CCCCC1)N1CC(c2nc(-c3cccc(Cl)c3)no2)C1")
"43%"

Dear reader, for each entry below, please note its Emax.
1. O=C([C@@H]1CC2CCC1C2)N1CC(c2nc(-c3cccc(Cl)c3)no2)C1 (stereo not given in full)
2. O=C(C1CCC(F)(F)CC1)N1CC(c2nc(-c3cccc(F)c3)no2)C1
3. Cc1cccc(-c2noc(C3CN(C(=O)C4CCCC(C)C4)C3)n2)c1 (stereo not given)
4. Cc1cccc(-c2noc(C3CN(C(=O)C4CCCO4)C3)n2)c1 (stereo not given)

Result:
1: 66%; 2: 53%; 3: 46%; 4: 3%

I have 3 molecules here; please give me Emax for each one.
1. CC1CCC(C(=O)N2CC(c3nc(-c4cccc(Cl)c4)no3)C2)CC1 (stereo not given)
2. CC1CCN(C(=O)N2CC(c3nc(-c4cccc(Cl)c4)no3)C2)CC1
3. O=C(Cc1cccc(F)c1)N1CC[C@H]1c1nc(-c2cccc(F)c2)no1

Result:
1. 75%
2. 66%
3. 52%

State the recorded Emax for every item in the following list.
1. CC1CCCC(C(=O)N2CC(c3nc(-c4cccc(Cl)c4)no3)C2)C1 (stereo not given)
2. Cc1cccc(-c2noc(C3CN(C(=O)c4ccccc4F)C3)n2)c1

Result:
1: 53%; 2: 5%

----------
Assay: Plasma protein binding in human
Format: ADME, cell-free
Settings: read-out: PPB (converted)
reported-property: fraction unbound
Numbers only.

Here are 2 compounds together with their reported answers.
>>> value_observed("CC1CCCCC1C(=O)N1CC(c2nc(-c3cccc(F)c3)no2)C1 (stereo not drawn)")
0.034
>>> value_observed("O=C(C1CCC(F)(F)CC1)N1CC(c2nc(-c3cccc(Cl)c3)no2)C1")
0.013

Next compound, fraction unbound to be filled in.
Request: Item under review: O=C([C@H]1CC2CCC1C2)N1CC(c2nc(-c3cccc(F)c3)no2)C1 (stereo partly drawn) . Reported fraction unbound?
Result: 0.007

----------
Target: Metabotropic glutamate receptor 5 (Homo sapiens)
Assay: Positive allosteric modulation of human mGluR5 expressed in recombinant HEK293 cells by FLIPR assay
Format: cell-based
Lab note: cut-off is 1000 nM. Strictly less in EC50 is fulfilled. Exactly 1000 nM or more is not fulfilled.

>>> category("Cc1ccc(S(=O)(=O)N2CC(c3nc(-c4cccc(C)c4)no3)C2)cc1")
"not fulfilled"

Request: Bench note: check whether Cc1cccc(-c2noc(C3CN(C(=O)C4CCC4)C3)n2)c1 shows EC50 below 1000 nM
Result: not fulfilled

Request: # check: EC50 < 1000 nM for Cc1cccc(-c2noc(C3CN(C(=O)C4CCCCC4)C3)n2)c1
Result: fulfilled

----------
What EC50 was measured for each of the following?
Biological target: Metabotropic glutamate receptor 5 (Homo sapiens, UniProt P41594)
Assay: Positive allosteric modulation of human mGluR5 expressed in recombinant HEK293 cells by FLIPR assay
Numbers only, in nM.

Example entries and their recorded answers appear below.
>>> value_observed("O=C(c1ccc(F)c(F)c1)N1CC(c2nc(-c3cccc(F)c3)no2)C1")
3200
>>> value_observed("CC1CCC(C(=O)N2CC(c3nc(-c4cccc(F)c4)no3)C2)CC1 (stereo not given)")
2200
>>> value_observed("O=C(C1CCC2(CCC2)CC1)N1CC(c2nc(-c3cccc(Cl)c3)no2)C1")
1100
>>> value_observed("O=C(Cc1cccc(F)c1)N1CC[C@H]1c1nc(-c2cccc(F)c2)no1")
2400

Now examine the next entry.
Request: What does the record list as EC50 for O=C(N1CCCC(F)C1)N1CC(c2nc(-c3cccc(Cl)c3)no2)C1 (stereo not given) ?
Result: 200

----------
Experiment: Plasma concentration in rat at 10 mg/kg, po after 1 hr
Type: ADME, organism-based
Set-up: dose 10 mg/kg, route oral
So I've got a bunch of molecules here, and I need their concentration at 1 h values.
Answers are plain numbers, in ng/mL.

>>> value_observed("O=C([C@H]1CC2CCC1C2)N1CC(c2nc(-c3cccc(F)c3)no2)C1 (some centres not stated)")
36

Request: Returns the measured concentration at 1 h for the input molecule. Input: O=C(C1CCC(F)(F)CC1)N1CC(c2nc(-c3cccc(Cl)c3)no2)C1
Result: 160

----------
Consider the following molecules; for each one, report its EC50.
Molecular target: Metabotropic glutamate receptor 5 (Homo sapiens)
Assay: Positive allosteric modulation of human mGluR5 expressed in recombinant HEK293 cells by FLIPR assay
One number for each entry, in nM.

Batch of 8 molecules: report EC50 for each.
1. O=C([C@@H]1CC2CCC1C2)N1CC(c2nc(-c3cccc(F)c3)no2)C1 (stereo not given in full)
2. CC1CCN(C(=O)N2CC(c3nc(-c4cccc(Cl)c4)no3)C2)CC1
3. O=C(C1CCCCC1)N1CC(c2nc(-c3cccc(Cl)c3)no2)C1
4. O=C(c1ccc(Cl)cc1)N1CC(c2nc(-c3cccc(F)c3)no2)C1
5. O=C(N1CCCCC1)N1CC(c2nc(-c3cccc(Cl)c3)no2)C1
6. O=C(N1CCCCCC1)N1CC(c2nc(-c3cccc(Cl)c3)no2)C1
7. O=C(C1CCCCC1)N1CC(c2nc(-c3cccc(F)c3)no2)C1
8. O=C([C@H]1CC2CCC1C2)N1CC(c2nc(-c3cccc(Cl)c3)no2)C1 (stereo not given in full)

Result:
[100, 865, 520, 2500, 370, 47, 1000, 74]

----------
Target: Metabotropic glutamate receptor 5 (Homo sapiens)
Test: Positive allosteric modulation of human mGluR5 expressed in recombinant HEK293 cells by FLIPR assay
Format: cell-based
So I've got a bunch of compounds here, and I need their Emax values.
Give bare numbers, in %.

Example entries and their recorded answers appear below.
>>> value_observed("Cc1cccc(-c2noc(C3CN(C(=O)c4ccc(F)cc4)C3)n2)c1")
32
>>> value_observed("O=C([C@@H]1CC2CCC1C2)N1CC(c2nc(-c3cccc(F)c3)no2)C1 (stereo partly drawn)")
110

Would you be so kind as to report Emax for each listed record?
1. O=C(c1ccc(Cl)cc1)N1CC(c2nc(-c3cccc(F)c3)no2)C1
2. O=C([C@H]1CC2CCC1C2)N1CC(c2nc(-c3ccccc3)no2)C1 (stereo partly drawn)
3. Cc1ccc(S(=O)(=O)N2CC(c3nc(-c4cccc(C)c4)no3)C2)cc1
4. Cc1cccc(-c2noc([C@@H]3CCN3C(=O)c3ccc(C#N)cc3)n2)c1

Result:
1: 62; 2: 160; 3: 1; 4: 88

Fill in Emax for each of the 2 compounds listed.
1. O=C(C1CCCO1)N1CC(c2nc(-c3cccc(Cl)c3)no2)C1 (stereo not drawn)
2. Cc1cccc(-c2noc(C3CN(C(=O)C4CCC(F)(F)CC4)C3)n2)c1

Result:
1: -3; 2: 36
